target: His6-AspH315–758 (human aspartate/asparagine-β-hydroxylase, AspH) (Homo sapiens)
Construct: N-Terminally His6-tagged human AspH315–758 (His6-AspH315–758) was produced in E. coli BL21 (DE3) cells; made in house; host or cells: E. coli BL21 (DE3), pET-28a(+) vector
Sequence (Q12797 315-758): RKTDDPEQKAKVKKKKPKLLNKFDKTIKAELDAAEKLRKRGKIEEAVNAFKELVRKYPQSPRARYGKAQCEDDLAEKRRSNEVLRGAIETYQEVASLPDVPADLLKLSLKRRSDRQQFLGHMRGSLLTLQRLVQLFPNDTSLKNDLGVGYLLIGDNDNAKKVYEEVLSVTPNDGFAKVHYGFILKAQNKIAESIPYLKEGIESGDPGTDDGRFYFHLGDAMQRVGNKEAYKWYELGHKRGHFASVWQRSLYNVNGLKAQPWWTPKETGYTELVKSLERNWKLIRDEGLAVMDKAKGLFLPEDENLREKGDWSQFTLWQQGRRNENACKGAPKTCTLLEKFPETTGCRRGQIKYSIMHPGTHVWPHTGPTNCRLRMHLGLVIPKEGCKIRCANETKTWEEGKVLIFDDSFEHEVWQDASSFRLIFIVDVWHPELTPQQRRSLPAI
assay.overview: SPE-MS AspH inhibition assay (LOPAC screen at fixed 20 μM and IC50 dose-response), hydroxylation of cyclic peptide hFX-CP101–119
Format: biochemical

- molecule: "COc1ccccc1N1CCN(CCCNc2c(C)c(=O)n(C)c(=O)n2C)CC1 [Urapidil, 5-Methyl-]"
  target: "His6-AspH315–758 (human aspartate/asparagine-β-hydroxylase, AspH) (Homo sapiens)"
  result.unit: "%"
  % conversion: 36.82
- molecule: "N[C@@H](Cn1oc(=O)[nH]c1=O)C(=O)O [(+)-Quisqualic acid]"
  target: "His6-AspH315–758 (human aspartate/asparagine-β-hydroxylase, AspH) (Homo sapiens)"
  result.unit: "%"
  % conversion: 34.23
- molecule: "CC(=O)[C@H]1CC[C@H]2[C@@H]3CC[C@H]4C[C@H](O)CC[C@]4(C)[C@H]3CC[C@]12C [5alpha-Pregnan-3alpha-ol-20-one]"
  target: "His6-AspH315–758 (human aspartate/asparagine-β-hydroxylase, AspH) (Homo sapiens)"
  result.unit: "%"
  % conversion: 26.94
- molecule: "O.c1cnc2c(c1)ccc1cccnc12 [1,10-Phenanthroline monohydrate, reference compound]"
  target: "His6-AspH315–758 (human aspartate/asparagine-β-hydroxylase, AspH) (Homo sapiens)"
  result.unit: "%"
  % conversion: 3.10

All figures here come from paper PMC7251097.
